The entries below come with measured AC50 values attached.
- study.system: Gamma-aminobutyric acid receptor subunit alpha-1 (Rattus norvegicus, UniProt P62813); further: assay procedure not described here
- Sequence (P62813 whole entry): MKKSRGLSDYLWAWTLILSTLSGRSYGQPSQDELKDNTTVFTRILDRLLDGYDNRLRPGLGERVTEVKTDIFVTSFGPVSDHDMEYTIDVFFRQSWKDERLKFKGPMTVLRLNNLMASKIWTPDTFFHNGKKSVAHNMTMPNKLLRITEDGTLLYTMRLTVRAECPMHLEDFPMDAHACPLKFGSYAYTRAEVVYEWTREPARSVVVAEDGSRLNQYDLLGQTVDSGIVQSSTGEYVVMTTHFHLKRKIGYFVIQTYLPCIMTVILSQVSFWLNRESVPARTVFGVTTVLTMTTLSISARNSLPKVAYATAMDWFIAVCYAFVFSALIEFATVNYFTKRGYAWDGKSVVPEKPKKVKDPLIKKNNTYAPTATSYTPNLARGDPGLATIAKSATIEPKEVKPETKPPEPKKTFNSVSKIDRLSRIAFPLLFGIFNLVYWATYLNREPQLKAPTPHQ
- Format: functional

{"columns": ["compound", "study.system", "AC50"],
 "data": [
  ["Cc1cnc(NC(=O)C2=C(O)c3ccccc3S(=O)(=O)N2C)s1", "Gamma-aminobutyric acid receptor subunit alpha-1 (Rattus norvegicus, UniProt P62813)", "> 10 µM"],
  ["COCCOC(=O)C1=C(C)NC(C)=C(C(=O)OC/C=C/c2ccccc2)C1c1cccc([N+](=O)[O-])c1 (stereo not drawn)", "Gamma-aminobutyric acid receptor subunit alpha-1 (Rattus norvegicus, UniProt P62813)", "> 30 µM"],
  ["CN(C)c1cc(CNCC(C)(C)C)c(O)c2c1C[C@H]1C[C@H]3[C@H](N(C)C)C(O)=C(C(N)=O)C(=O)[C@@]3(O)C(O)=C1C2=O", "Gamma-aminobutyric acid receptor subunit alpha-1 (Rattus norvegicus, UniProt P62813)", "> 30 µM"],
  ["CC(C)c1cc2c(cc1S(=O)(=O)O)[C@@]1(C)CCC[C@@](C)(C(=O)O)[C@@H]1CC2", "Gamma-aminobutyric acid receptor subunit alpha-1 (Rattus norvegicus, UniProt P62813)", "> 30 µM"],
  ["CCN(CC)CCOC(=O)c1ccc(N)cc1Cl", "Gamma-aminobutyric acid receptor subunit alpha-1 (Rattus norvegicus, UniProt P62813)", "> 30 µM"],
  ["CC(C)C[C@H](CN)CC(=O)O", "Gamma-aminobutyric acid receptor subunit alpha-1 (Rattus norvegicus, UniProt P62813)", "> 30 µM"],
  ["CNCCC=C1c2ccccc2CCc2ccccc21", "Gamma-aminobutyric acid receptor subunit alpha-1 (Rattus norvegicus, UniProt P62813)", "> 30 µM"],
  ["Cc1cc2nc3c(=O)[nH]c(=O)nc-3n(C[C@H](O)[C@H](O)[C@H](O)COP(=O)(O)O)c2cc1C [RIBOFLAVIN 5'-PHOSPHATE]", "Gamma-aminobutyric acid receptor subunit alpha-1 (Rattus norvegicus, UniProt P62813)", "> 30 µM"]
]}
